- Measured Target: Beta-3 adrenergic receptor (Rattus norvegicus, UniProt P26255)
- Sequence (P26255 whole entry): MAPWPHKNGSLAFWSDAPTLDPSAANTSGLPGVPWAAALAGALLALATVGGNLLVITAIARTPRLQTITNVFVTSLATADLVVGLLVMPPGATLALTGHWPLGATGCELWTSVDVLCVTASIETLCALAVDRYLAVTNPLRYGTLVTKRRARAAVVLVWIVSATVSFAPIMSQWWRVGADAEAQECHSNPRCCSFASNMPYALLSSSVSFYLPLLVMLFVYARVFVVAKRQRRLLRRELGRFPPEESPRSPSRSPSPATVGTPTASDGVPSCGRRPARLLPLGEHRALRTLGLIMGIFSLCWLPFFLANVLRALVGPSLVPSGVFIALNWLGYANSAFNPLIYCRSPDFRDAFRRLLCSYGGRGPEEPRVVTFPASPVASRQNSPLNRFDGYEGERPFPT
- Protocol Details: Agonist activity at rat adrenergic beta3 receptor expressed in DHB-11 CHO cells assessed as cAMP accumulation after 20 mins by scintillation proximity assay
Property: EC50 (nM)
Numeric answer only, unit nM assumed.

*Q* State the recorded EC50 for this entry: CC(C)(Cc1ccc(Oc2ccc(C(N)=O)cn2)cc1)NC[C@H](O)COc1cccc2[nH]c3ccccc3c12
*A* 5

###

- Protocol Details: Tmax in healthy human plasma
- Format: ADME, organism-based
Property: Tmax (h)
The reply should be a number in h, with the unit left off.

*Q* Data request, read-out Tmax, for CC(C)(Cc1ccc(Oc2ccc(C(N)=O)cn2)cc1)NC[C@H](O)COc1cccc2[nH]c3ccccc3c12
*A* 2

Ref: ChEMBL document CHEMBL2010782
